Entries and their EC50
target: UniProt:P32238; test: IP-One accumulation TR-FRET assay, PAM format, HEK-293 CCK1R cells; assay type: cell-based; parameters: expressed in transfected cells; host or cells: HEK-293; details: HEK-293 CCK1R cells, PAM format with EC20 CCK; average ± SD

{"columns": ["smilesData", "unitOfMeasurement", "EC50"],
 "data": [
  ["CCN(CC)CCNc1ncnc2c1oc1nc(CC(C)C)c3c(c12)CCC3", "µM", 18.8],
  ["CC(C)Cc1nc2oc3c(NCCN(C)C)ncnc3c2c2c1CCC2", "µM", 23.8],
  ["CN1CCN(c2ncnc3c2sc2nc(N4CCCCC4)c4c(c23)CCCC4)CC1", "µM", 29.6],
  ["CCN(CC)CCCNc1ncnc2c1oc1nc(CC(C)C)c3c(c12)CCC3", "µM", 22.5],
  ["CN1CCN(c2ncnc3c2sc2nc(N4CCOCC4)c4c(c23)CCCC4)CC1", "µM", 18.2],
  ["CCCc1nc2sc3c(NCCN4CCOCC4)ncnc3c2c2c1CCCC2", "µM", 37.8],
  ["CN(C)CCNc1nnnc2c1sc1nc(N3CCCCC3)c3c(c12)CCCC3", "µM", 18.4],
  ["OCCN1CCN(c2ncnc3c2sc2nc(-c4ccccc4)c4c(c23)CCC4)CC1", "µM", 31.7],
  ["c1ccc(-c2nc3sc4c(NCCN5CCOCC5)ncnc4c3c3c2CCCC3)cc1", "µM", 30.2],
  ["CN(C)CCCNc1nnnc2c1sc1nc(N3CCCCC3)c3c(c12)CCCC3", "µM", 9.6],
  ["CN(C)CCNc1ncnc2c1sc1nc(N3CCOCC3)c3c(c12)CCCC3", "µM", 14.4],
  ["c1nc(N2CCNCC2)c2sc3nc(N4CCOCC4)c4c(c3c2n1)CCCC4", "µM", 16.6]
]}

----------
molecular target: CCK1R (Homo sapiens); assay: IP-One accumulation TR-FRET assay, PAM format, HEK-293 CCK1R cells; assay type: cell-based; parameters: expressed in transfected cells; host or cells: HEK-293; details: HEK-293 CCK1R cells, PAM format
Sequence (P32238 whole entry): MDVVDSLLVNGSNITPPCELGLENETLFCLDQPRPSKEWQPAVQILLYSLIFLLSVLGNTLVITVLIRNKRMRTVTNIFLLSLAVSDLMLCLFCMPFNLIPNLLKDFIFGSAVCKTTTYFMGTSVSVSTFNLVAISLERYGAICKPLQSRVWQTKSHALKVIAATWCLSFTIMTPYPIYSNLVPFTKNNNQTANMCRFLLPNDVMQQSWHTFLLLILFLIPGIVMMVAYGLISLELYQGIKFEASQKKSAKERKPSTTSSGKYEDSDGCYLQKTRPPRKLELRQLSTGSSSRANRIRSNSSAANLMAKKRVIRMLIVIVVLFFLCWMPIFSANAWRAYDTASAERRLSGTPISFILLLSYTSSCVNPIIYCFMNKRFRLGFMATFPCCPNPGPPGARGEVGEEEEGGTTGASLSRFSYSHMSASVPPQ
readoutType: CCK1R PAM (IP-One) Score (activity score = normalized Emax × pEC50)

{"columns": ["smilesData", "recordedResult"],
 "data": [
  ["CCN(CC)c1ncnc2c1sc1nc(N3CCOCC3)c3c(c12)CCCC3", 0],
  ["OCCN1CCN(c2ncnc3c2sc2nc(-c4ccccc4)c4c(c23)CCC4)CC1", 1.26],
  ["CCCc1nc2oc3c(NCCCN(C)C)ncnc3c2c2c1CCCC2", 1.66],
  ["CCCc1nc2oc3c(NN)ncnc3c2c2c1CCCC2", 0],
  ["O=C(O)CSc1ncnc2c1sc1nc(N3CCOCC3)c3c(c12)CCCC3", 0],
  ["CC(C)Cc1nc2oc3c(NCCN(C)C)ncnc3c2c2c1CCC2", 1.9],
  ["CN(C)CCCNc1nnnc2c1sc1nc(N3CCCCC3)c3c(c12)CCCC3", 1.86],
  ["OCCNc1ncnc2c1sc1nc(N3CCOCC3)c3c(c12)CCCC3", 0],
  ["COCCNc1ncnc2c1sc1nc(N3CCOCC3)c3c(c12)CCCC3", 0],
  ["CCN(CC)CCNc1ncnc2c1sc1nc(N3CCOCC3)c3c(c12)CCCC3", 2.94],
  ["C=CCNc1ncnc2c1sc1nc(N3CCOCC3)c3c(c12)CCCC3", 0],
  ["CCCc1nc2oc3c(N4CCN(CCO)CC4)ncnc3c2c2c1CCCC2", 1.55],
  ["CN(C)CCNc1ncnc2c1sc1nc(-c3ccccc3)c3c(c12)CCCC3", 2.17],
  ["c1ccc(CCNc2ncnc3c2sc2nc(N4CCOCC4)c4c(c23)CCCC4)cc1", 0],
  ["CN(C)CCNc1ncnc2c1sc1nc(N3CCOCC3)c3c(c12)CCCC3", 2.71],
  ["CCN(CC)CCNc1ncnc2c1oc1nc(CC(C)C)c3c(c12)CCC3", 1.51],
  ["Sc1nnnc2c1sc1nc(N3CCOCC3)c3c(c12)CCCC3", 0],
  ["CCCc1nc2sc3c(NCCN4CCOCC4)ncnc3c2c2c1CCCC2", 2.34],
  ["O=C(CSc1ncnc2c1sc1nc(N3CCOCC3)c3c(c12)CCCC3)Nc1ccc(Br)cc1", 0],
  ["CCCCNc1ncnc2c1sc1nc(N3CCOCC3)c3c(c12)CCCC3", 0]
]}
